The entries below are paired with their reported Dmax.
- Experimental System: KRas (Homo sapiens, UniProt P01116, G12C)
- Measurement Description: KRas degradation in NCI-H2030 cells by Western blot, normalized to GAPDH (data of Table 14)
- Assay type: cell-based
- Set-up: host or cells: NCI-H2030
- Protocol Conditions: NCI-H2030; H2030 cells

Below, each entry is followed by its recorded Dmax result.
Compound	Dmax
CCC(=O)N1CCN(c2nc(NCCC(=O)N(C)CCOCCOCCOCCOCCOCC(=O)N[C@H](C(=O)N3C[C@H](O)C[C@H]3C(=O)N[C@@H](C)c3ccc(-c4scnc4C)cc3)C(C)(C)C)nc3c(F)c(-c4cc(O)cc5ccccc45)c(Cl)cc23)CC1 [compound 190]	≤ 35%
CCC(=O)N1CCN(c2nc(NCCC(=O)N(C)CCOCCOCCOc3cc(-c4scnc4C)ccc3CNC(=O)[C@@H]3C[C@@H](O)CN3C(=O)[C@H](c3cc(C)no3)C(C)C)nc3c(F)c(-c4cc(O)cc5ccccc45)c(Cl)cc23)CC1 [compound 333]	≤ 35%
CCC(=O)N1CCN(c2nc(NCCC(=O)N(C)CCOCCOCCOCCOc3cc(-c4scnc4C)ccc3CNC(=O)[C@@H]3C[C@@H](O)CN3C(=O)[C@H](c3cc(C)no3)C(C)C)nc3c(F)c(-c4cc(O)cc5ccccc45)c(Cl)cc23)CC1 [compound 335]	≤ 35%
C=CC(=O)N1CCN(c2nc(NCCC(=O)N(C)CCOCCOc3cc(-c4scnc4C)ccc3CNC(=O)[C@@H]3C[C@@H](O)CN3C(=O)[C@H](c3cc(C)no3)C(C)C)nc3c(F)c(-c4cc(O)cc5ccccc45)c(Cl)cc23)CC1 [compound 340]	≤ 35%
CCC(=O)N1CCN(c2nc(NCCC(=O)N(C)CCOCCOCCOCCOCC(=O)N[C@H](C(=O)N3C[C@H](O)C[C@H]3C(=O)N[C@@H](C)c3ccc(-c4scnc4C)cc3)C(C)(C)C)nc3c(F)c(-c4cc(O)cc5ccccc45)c(Cl)cc23)CC1 [compound 189]	≤ 35%

Query for KRas (Homo sapiens, UniProt P01116, G12C): what Dmax does the record show for C=CC(=O)N1CCN(c2nc(NCCC(=O)N(C)CCOCCOc3ccc4c(c3)CN(C3CCC(=O)NC3=O)C4=O)nc3c(F)c(-c4cc(O)cc5ccccc45)c(Cl)cc23)CC1 (centres unmarked) [compound 65] ?
≤ 35%

Query for KRas (Homo sapiens, UniProt P01116, G12C): what Dmax does the record show for C=CC(=O)N1CCN(c2nc(O[C@H](C)CN3CCC(OCCOCCOCCOCC(=O)N[C@H](C(=O)N4C[C@H](O)C[C@H]4C(=O)N[C@@H](C)c4ccc(-c5scnc5C)cc4)C(C)(C)C)CC3)nc3c(F)c(-c4cc(O)cc5ccccc45)c(Cl)cc23)CC1 [compound 400] ?
≤ 35%

Query for KRas (Homo sapiens, UniProt P01116, G12C): what Dmax does the record show for C=CC(=O)N1CCN(c2nc(NCCC(=O)N(C)CCOCCOCCOCCOc3ccc4c(c3)CN(C3CCC(=O)NC3=O)C4=O)nc3c(F)c(-c4cc(O)cc5ccccc45)c(Cl)cc23)CC1 (centres unmarked) [compound 67] ?
≤ 35%

====

- Experimental System: KRas (Homo sapiens, UniProt P01116, G12C)
- Measurement Description: KRas degradation in SW1573 cells by Western blot, normalized to GAPDH (data of Table 14)
- Type: cell-based
- Protocol Conditions: SW1573 cells
Test Readout: DC50

Chemical Structure	Test Readout	Measured Result
C=CC(=O)N1CCN(c2nc(O[C@H](C)CN3CCC(OCCOCCOCCOCC(=O)N[C@H](C(=O)N4C[C@H](O)C[C@H]4C(=O)N[C@@H](C)c4ccc(-c5scnc5C)cc4)C(C)(C)C)CC3)nc3c(F)c(-c4cc(O)cc5ccccc45)c(Cl)cc23)CC1	DC50	≥ 1000 nM
C=CC(=O)N1CCN(c2nc(O[C@H](C)CN3CCC(CN4CCN(CC(=O)N[C@H](C(=O)N5C[C@H](O)C[C@H]5C(=O)N[C@@H](C)c5ccc(-c6scnc6C)cc5)C(C)(C)C)CC4)CC3)nc3c(F)c(-c4cc(O)cc5ccccc45)c(Cl)cc23)CC1	DC50	< 100 nM
C=CC(=O)N1CCN(c2nc(O[C@H](C)CN3CCC(OCCOCCOCCOCCOCCOCC(=O)N[C@H](C(=O)N4C[C@H](O)C[C@H]4C(=O)N[C@@H](C)c4ccc(-c5scnc5C)cc4)C(C)(C)C)CC3)nc3c(F)c(-c4cc(O)cc5ccccc45)c(Cl)cc23)CC1	DC50	≥ 1000 nM

Consider the record given below.
Query for KRas (Homo sapiens, UniProt P01116, G12C): what DC50 does the record show for C=CC(=O)N1CCN(c2nc(O[C@H](C)CN3CCC(OCCOCC(=O)N[C@H](C(=O)N4C[C@H](O)C[C@H]4C(=O)N[C@@H](C)c4ccc(-c5scnc5C)cc4)C(C)(C)C)CC3)nc3c(F)c(-c4cc(O)cc5ccccc45)c(Cl)cc23)CC1 ?
< 100 nM

====

The entries below are paired with their reported Dmax.
- Experimental System: KRas (Homo sapiens, UniProt P01116, G12C)
- Measurement Description: KRas degradation in NCI-H2030 cells by Western blot, normalized to GAPDH (data of Table 14)
- Type: cell-based
- Set-up: host or cells: NCI-H2030
- Protocol Conditions: NCI-H2030

Below, each entry is followed by its recorded Dmax result.
Compound	Dmax
CN(CCOCCOCCOCCNc1cccc2c1C(=O)N(C1CCC(=O)NC1=O)C2=O)C(=O)CCNc1nc(N2CCN(C(N)=O)CC2)c2cc(Cl)c(-c3cc(O)cc4ccccc34)c(F)c2n1 (stereo not shown)	≤ 35%
C=CC(=O)N1CCN(c2nc(NCCC(=O)N(C)CCOc3cc(-c4scnc4C)ccc3CNC(=O)[C@@H]3C[C@@H](O)CN3C(=O)[C@H](c3cc(C)no3)C(C)C)nc3c(F)c(-c4c(O)cccc4F)c(Cl)cc23)CC1 (atropisomer, axis not shown)	≤ 35%
C=CC(=O)N1CCN(c2nc(O[C@H](C)CN3CCC(OCCOCCOCC(=O)N[C@H](C(=O)N4C[C@H](O)C[C@H]4C(=O)N[C@@H](C)c4ccc(-c5scnc5C)cc4)C(C)(C)C)CC3)nc3c(F)c(-c4cc(O)cc5ccccc45)c(Cl)cc23)CC1	35 to 70%

If you can, please state the reported Dmax value of CC(=O)N1CCN(c2nc(NCCC(=O)N(C)CCOCC(=O)N[C@H](C(=O)N3C[C@H](O)C[C@H]3C(=O)N[C@@H](C)c3ccc(-c4scnc4C)cc3)C(C)(C)C)nc3c(F)c(-c4cc(O)cc5ccccc45)c(Cl)cc23)CC1 .
≤ 35%

====

- Experimental System: KRas (Homo sapiens, UniProt P01116, G12C)
- Measurement Description: KRas degradation in SW1573 cells by Western blot, normalized to GAPDH (data of Table 14)
- Type: cell-based
- Protocol Conditions: SW1573 cells, 0.3 μM
Test Readout: Percent Degradation at Indicated Concentration (μM)

Compound	Experimental System	Measured Result
C=CC(=O)N1CCN(c2nc(OC[C@@H]3C[C@@H](OCCOCCOCCOc4ccc5c(c4)C(=O)N(C4CCC(=O)NC4=O)C5=O)CN3C)nc3c2CCN(c2cccc4ccccc24)C3)C[C@@H]1CC#N (some centres unmarked)	KRas (Homo sapiens, UniProt P01116, G12C)	A (A > 70)
C=CC(=O)N1CCN(c2nc(OC[C@@H]3C[C@@H](OCCOCCOCCOCCOCCNc4cccc5c4C(=O)N(C4CCC(=O)NC4=O)C5=O)CN3C)nc3c2CCN(c2cccc4ccccc24)C3)C[C@@H]1CC#N (some centres unmarked)	KRas (Homo sapiens, UniProt P01116, G12C)	A (A > 70)

====

- Experimental System: KRas (Homo sapiens, UniProt P01116, G12C)
- Measurement Description: KRas degradation in H2030 cells by Western blot (data of Table 5)
- Format: cell-based
- Set-up: host or cells: NCI-H2030
- Protocol Conditions: H2030 cells serum starved 24 hours, treated 24 hours with 1 uM; KRas immunoblot

Molecule	H2030 Degradation at 1 uM
CCC(=O)N1CCN(c2nc(NCCC(=O)N(C)CCOCCOCCOCCNc3cccc4c3C(=O)N(C3CCC(=O)NC3=O)C4=O)nc3c(F)c(-c4cc(O)cc5ccccc45)c(Cl)cc23)CC1 (stereo not shown)	C (C < 25)
C=CC(=O)N1CCN(c2nc(NCCC(=O)N(C)CCOCCOCCOCC(=O)N[C@H](C(=O)N3C[C@H](O)C[C@H]3C(=O)N[C@@H](C)c3ccc(-c4scnc4C)cc3)C(C)(C)C)nc3c(F)c(-c4cc(O)cc5ccccc45)c(Cl)cc23)CC1	B (25 ≤ B < 50)
C=CC(=O)N1CCN(c2nc(NCCC(=O)N(C)CCOCCOCCOCCNc3cccc4c3C(=O)N(C3CCC(=O)NC3=O)C4=O)nc3c(F)c(-c4cc(O)cc5ccccc45)c(Cl)cc23)CC1 (stereo not shown)	B (25 ≤ B < 50)
CCC(=O)N1CCN(c2nc(NCCC(=O)N(C)CCOCCOCCOCC(=O)N[C@H](C(=O)N3C[C@H](O)C[C@H]3C(=O)N[C@@H](C)c3ccc(-c4scnc4C)cc3)C(C)(C)C)nc3c(F)c(-c4cc(O)cc5ccccc45)c(Cl)cc23)CC1	C (C < 25)
